# system.tested: human GPR120 (Homo sapiens, UniProt Q5NUL3)
# Construct: host or cells: HEK293 cells co-expressing Gqi5
# Sequence (Q5NUL3 1-361): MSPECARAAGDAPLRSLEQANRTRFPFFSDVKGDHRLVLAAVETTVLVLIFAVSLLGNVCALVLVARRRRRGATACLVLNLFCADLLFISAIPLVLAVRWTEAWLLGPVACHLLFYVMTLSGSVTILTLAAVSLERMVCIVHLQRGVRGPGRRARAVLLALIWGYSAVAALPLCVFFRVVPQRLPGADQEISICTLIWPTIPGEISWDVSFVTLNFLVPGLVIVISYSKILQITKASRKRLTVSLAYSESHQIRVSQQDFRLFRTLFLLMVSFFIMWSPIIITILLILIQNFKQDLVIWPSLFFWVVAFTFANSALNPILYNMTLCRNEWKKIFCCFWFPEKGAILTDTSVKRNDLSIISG
# assay.info: Intracellular Ca2+ assay in human GPR120 stable cell line (FLIPR Calcium 4 dye, Flexstation)
# Type: cell-based
# protocol.conditions: HEK293, % activity at 2.5 µM compared to the maximal activity of the compound of Example 25 at 2.5 µM (=100%); HEK293 cells co-expressing Gqi5; read-out: % Activity (Ex. 25 Reference Compound)
quantity: activity at 2.5 µM (%)

> print(dat)
                                   compound  reported.result
1  CC(C)Oc1cc(OCc2cc(F)cc3c2OC(C)(C)C3)ccc1CCC(=O)O              152
2  CC(Cc1ccc(OCc2cc(-n3cnnn3)cc3c2OC(C)(C)C3)cc1)C(=O)O (centres unmarked)             75.9
3  CC(Cc1ccc(OCc2cc(Cl)cc3c2OC(C)(C)C3=O)c(C(F)(F)F)c1)C(=O)O (centres unmarked)             3.85
4  CC1(C)Cc2cc(Cl)cc(COc3c(F)cc(C4CC4CC(=O)O)cc3F)c2O1 (centres unmarked)              116
5  CC1(C)Cc2cc(Cl)cc(COc3ccc4c(c3)CC(C(=O)O)C4)c2O1 (centres unmarked)              115
6  CC1(C)Cc2cc(F)cc(COc3ccc(CC(=O)O)cc3)c2O1              103
7  CC(Cc1ccc(OCc2cc(Cl)cc3c2OCC3(C)C)cc1)C(=O)O (centres unmarked)              114
8  [2H]C1([2H])c2cc(Cl)cc(COc3ccc(CC(C)C(=O)O)cc3C(F)(F)F)c2OC1(C)C (centres unmarked)              139

====

# system.tested: human GPR120 (Homo sapiens, UniProt Q5NUL3)
# Construct: host or cells: HEK293 cells co-expressing Gqi5
# assay.info: Intracellular Ca2+ assay in human GPR120 stable cell line (FLIPR Calcium 4 dye, Flexstation)
# Assay type: cell-based
# protocol.conditions: HEK293, % activity at 2.5 µM compared to the maximal activity of the compound of Example 25 at 2.5 µM (=100%); HEK293 cells co-expressing Gqi5; read-out: % Activity (Ex. 25 Reference Compound)
quantity: activity at 2.5 µM (%)

> print(dat)
                                    molecule  unit.symbol  reported.result
 1  Cc1cc2cccc(COc3c(F)cc(CC(C)C(=O)O)cc3F)c2s1 (stereo not shown)            %              117
 2  CC(Cc1ccc(OCc2cc(Cl)cc3c2OC2(CCCC2)C3)cc1)C(=O)O (stereo not shown)            %              165
 3  C[C@H](Cc1ccc(OCc2cc(Cl)cc3c2OC(C)(C)C3)c(F)c1)C(=O)O            %              143
 4  CC(Cc1cc(F)c(OCc2cc(OCc3ccccc3)cc3c2OC(C)(C)C3)c(F)c1)C(=O)O (stereo not shown)            %             51.5
 5  C[C@H](Cc1ccc(OCc2cc(Cl)cc3c2OC(C)(C)C3)c(C(F)(F)F)c1)C(=O)O            %             90.6
 6  CC1(C)Cc2cc(F)cc(COc3cc(Cl)c(CCC(=O)O)c(Cl)c3)c2O1            %              151
 7  CC(Cc1ccc(OCc2c(F)ccc3c2CC(C)(C)O3)cc1)C(=O)O (stereo not shown)            %              125
 8  CC(CC(=O)O)c1cc(F)c(OCc2cc(Cl)cc3c2OC(C)(C)C3)c(F)c1 (stereo not shown)            %              155
 9  CC(Cc1ccc(OCc2cc(OC(F)(F)F)cc3c2OC(C)(C)C3)cc1)C(=O)O (stereo not shown)            %              132
10  CC(Cc1cc(F)c(OCc2cccc3cn[nH]c23)c(F)c1)C(=O)O (stereo not shown)            %             16.7
11  CCc1cc(OCc2cc(F)cc3c2OC(C)(C)C3)ccc1CCC(=O)O            %              151
12  COc1cc(CCC(=O)O)c(Br)cc1OCc1cc(F)cc2c1OC(C)(C)C2            %              109
13  CC(Cc1ccc(OCc2cc(Cl)cc3c2OC(C)(C)C3O)cc1)C(=O)O (stereo not shown)            %              104
14  CC1(C)Cc2cc(F)cc(COc3ccc4c(c3)CC[C@H]4CC(=O)O)c2O1            %              152
15  COc1cc(OCc2cc(Cl)cc3c2OC2(CCCC2)C3)ccc1CCC(=O)O            %              148
16  Cc1nc2cccc(COc3c(F)cc(CC(C)C(=O)O)cc3F)c2o1 (stereo not shown)            %              109
17  [2H]C1([2H])c2cc(F)cc(COc3ccc(CC(C)C(=O)O)cc3)c2OC1(C)C (stereo not shown)            %              144
18  CC1(C)Cc2c(COc3ccc4c(c3)CC[C@@H]4CC(=O)O)cc(F)cc2O1            %              104
19  COc1cccc(-c2cc(COc3ccc(CC(C)C(=O)O)cc3)c3c(c2)CC(C)(C)O3)c1 (stereo not shown)            %             5.23
20  [2H]C([2H])(Oc1ccc(CC(C)C(=O)O)cc1C(F)(F)F)c1cc(F)cc2c1OC(C)(C)C2 (stereo not shown)            %              101
21  CC1(C)Cc2cc(F)cc(COc3ccc4c(c3)CC[C@@H]4CC(=O)O)c2O1            %              106
22  CC1(C)Cc2cc(F)cc(COc3ccc4c(c3)CCCC4CC(=O)O)c2O1 (stereo not shown)            %              107
23  CN(C)Cc1cc(OCc2cc(F)cc3c2OC(C)(C)C3)ccc1CCC(=O)O            %             3.58
24  CC1(C)Cc2cc(F)cc(COc3ccc(CCCC(=O)O)cc3)c2O1            %              172
25  CC1(C)Cc2cc(Cl)cc(COc3ccc4c(c3)CC[C@@H]4CC(=O)O)c2O1            %              105
26  CC1(C)Cc2c(COc3ccc4c(c3)CCC4CC(=O)O)ccc(F)c2O1 (stereo not shown)            %             98.5
27  CC(=O)NCCOC(=O)C(C)Cc1ccc(OCc2cc(Cl)cc3c2OC(C)(C)C3)c(C(F)(F)F)c1 (stereo not shown)            %               47
28  Cc1c(CCC(=O)O)ccc(OCc2cc(Cl)cc3c2CC(C)(C)O3)c1C            %              141
29  [2H]C([2H])(Oc1ccc(CCC(=O)O)c(CC)c1F)c1cc(F)cc2c1OC(C)(C)C2            %              119
30  COc1cc(COc2ccc(CC(C)C(=O)O)cc2)c2c(c1)CC(C)(C)O2 (stereo not shown)            %              144
31  CC(C)Oc1ncccc1COc1ccc2c(c1)CCC2CC(=O)O (stereo not shown)            %              118
32  COc1cc(OCc2cc(F)cc3c2OC(C)(C)C3)ccc1CCC(=O)O            %              130
33  CC(=O)Nc1cc(COc2ccc(CC(C)C(=O)O)cc2)c2c(c1)CC(C)(C)O2 (stereo not shown)            %               47
34  [2H]C([2H])(Oc1ccc(CC(C)C(=O)O)cc1F)c1cc(F)cc2c1OC(C)(C)C2 (stereo not shown)            %             86.2
